Form field: IC50 of inhibiting TSLP-induced proliferation of BaF3 cells overexpressing TSLPR/IL7R (one value per entry).
molecular target: Fc-tagged human TSLP antigen (huTSLP-Fc) (human); test: cell-based or functional assay
// units = pM; emit number, no label

Answered cases to consult:
- binder: "hu199-36 (antibody, human IgG1, kappa, V domains shown) VH: EVQLVQSGAEVKKPGASVKVSCKASGYTFTTYWMHWVKQAPGQGLEWMGMIDPSDSETTLIQKFKDKVTLTVDKSTSTAYMELSSLRSEDTAVYYCARTLDGYYDYWGQGTTVTVSS VL: DIQMTQSPSSLSASVGDRVTITCRASENIYSYLAWYQQKPGKSPQLLVYFAKTLAEGVPSRFSGSVSGTQFTLTISSLQPEDFATYYCQHHYGTPWTFGGGTKVEIKR"
  readout-number: 476
- binder: "hu119-30 (antibody, human IgG1, kappa, V domains shown) VH: EAQLVQSGAEVKKPGSSVKVSCKASGFTFSTYNMHWVRQAPGQGLEWIGAIYPGNGETSYNQKFKDRATLTVDKSTRTAYMELSSLRSEDTAVYYCAREDDYGEGYFDVWGQGTTVTVSS VL: DIVLTQSPATLSLSPGERATLSCRASESVDSSGLSFMHWYQQKPGQPPRLLLYRASNLGSGIPARFSGSGSGTDFTLTISSLEPEDFAVYYCQQINTDPLTFGQGTKLEIKR"
  readout-number: 430
- binder: "AMG157 (antibody, human IgG2, lambda, V domains shown) VH: QMQLVESGGGVVQPGRSLRLSCAASGFTFRTYGMHWVRQAPGKGLEWVAVIWYDGSNKHYADSVKGRFTITRDNSKNTLNLQMNSLRAEDTAVYYCARAPQWELVHEAFDIWGQGTMVTVSS VL: SYVLTQPPSVSVAPGQTARITCGGNNLGSKSVHWYQQKPGQAPVLVVYDDSDRPSWIPERFSGSNSGNTATLTISRGEAGDEADYYCQVWDSSSDHVVFGGGTKLTVLG"
  readout-number: 573

Q: Indicate the recorded IC50 of inhibiting TSLP-induced proliferation of BaF3 cells overexpressing TSLPR/IL7R value for this binder: hu179-33 (antibody, human IgG1, kappa, V domains shown) VH: EVQLVQSGAEVKKPGSSVKVSCKASGYTFSNYLIEWVRQAPGQGLEWIGVIDPGVGDTNYNENFKGRATLTADKSTSTAYIELSSLRSEDTAVYYCAREDNTGTAFDYWGQGTTVTVSS VL: SIVMTQTPLSLSVTPGQPASISCKASQSVSSDVTWYLQKPGQSPQLLIYYVSEHYTGVPDRFSGSGYGTDFTLKISRVEAEDVGVYYCQQHHRFPLTFGQGTKLEIKR
Ans: 409

Q: State its IC50 of inhibiting TSLP-induced proliferation of BaF3 cells overexpressing TSLPR/IL7R for this binder: hu3-13 (antibody, human IgG1, kappa, V domains shown) VH: EVQLVQSGAEVKKPGASVKVSCKASGYTFTDDYMNWVRQAPGQRLEWMGIISPYNGGTSYNQKFKGRVTLTVDKSASTAYMELSSLRSEDTAVYYCAREDYDYDGYAMDYWGQGTTVTVSS VL: EIVLTQSPATLSLSPGERATLSCRASSSVSYMHWYQQKPGQAPRPWIYATSNLASGVPARFSGSGSGTSYTLTISRLEPEDFAVYYCQQSDSGREFGGGTKVEIKR
Ans: 444

Values were extracted from patent US20260022166A1.
